Item-by-item account of viability at 28.5 h, 10 µM
# protocolText: in vitro
# studyConditions: human, hela cells, % viability
Give a bare numeral; the unit % is implied.

// worked examples, viability at 28.5 h, 10 µM included
compound="Cc1ccc(OCC(=O)NCC2CCN(c3cnn(C)c(=O)c3)C2)cc1 (stereo not drawn) [CBK306693]" measurementlabel="viability at 28.5 h, 10 µM" measvalue=83.6
compound="Cc1cccn2c(=O)c(/C=C3\\SC(=S)N(CCCC(=O)O)C3=O)c(N3CCC(C)CC3)nc12 [CBK264793]" measurementlabel="viability at 28.5 h, 10 µM" measvalue=107
compound="O=S(=O)(NCCn1c(-c2ccncc2)nc2ccccc21)c1ccccc1 [CBK288578]" measurementlabel="viability at 28.5 h, 10 µM" measvalue=87.2
compound="Cc1nn(CC(=O)N2CCCC2)c(=O)c2cc3sccc3n12 [CBK284024]" measurementlabel="viability at 28.5 h, 10 µM" measvalue=95.2

Now, please, on to the next compound.
Exam item: Give the measured viability at 28.5 h, 10 µM of NC(=O)c1ccccc1NC(=O)CN(c1cccc(Br)c1)S(=O)(=O)c1ccccc1 [CBK265263] .
Marked response: 92.1

###

Each entry below carries its recorded viability at 28.5 h, 10 µM.
# protocolText: in vitro
# studyConditions: human, hela cells, % viability
Note: unit % is implicit; provide only the numeric part.

compound=O=C(CCN1C(=O)/C(=C/c2ccc(F)cc2)SC1=S)NNC(=O)c1ccncc1 measurementlabel="viability at 28.5 h, 10 µM" measvalue=92.4
compound=Cc1ccc(C)n1-c1ccc(CC(=O)O)cc1 measurementlabel="viability at 28.5 h, 10 µM" measvalue=92.2
compound=Cc1cc2c(cc3c(=O)n(CC(=O)NCC4CC4)nc(C)n32)s1 measurementlabel="viability at 28.5 h, 10 µM" measvalue=96.6
compound="CCOC(=O)CN1CCN(c2nccnc2Oc2ccc(OC)c(OC)c2)CC1 [CBK083052T]" measurementlabel="viability at 28.5 h, 10 µM" measvalue=103

Exam item: viability at 28.5 h, 10 µM for O=C(COc1ccccc1)Nc1ccc2oc(-c3cccnc3)nc2c1 ?
Marked response: 92.1

###

# protocolText: in vitro
# studyConditions: human, hela cells, % viability
Reported viability at 28.5 h, 10 µM values follow for various compounds
Your answer should be a plain number; it is taken to be in %.

compound=COc1ccc(C)cc1CC(=O)N1CCc2c(sc3ncnc(N)c23)C1 measvalue=83.4
compound=O=c1nc(NS(=O)(=O)c2ccc(Oc3ccccc3)cc2)c(F)c[nH]1 measvalue=89.3
compound=O=C(N1CCC(c2ccncc2)CC1)C1(c2ccccc2)CC1 measvalue=102

Exam item: Would you kindly share the measured viability at 28.5 h, 10 µM for O=C(CSc1nnc(-c2ccco2)n1Cc1ccco1)c1ccc(-c2ccccc2)cc1 ?
Marked response: 91.1

Exam item: # get_value(readout='viability at 28.5 h, 10 µM', item= CCCN1CCc2c(sc3nc(SCC(=O)OC)nc(N)c23)C1 )
Marked response: 96.6

Exam item: Find the recorded viability at 28.5 h, 10 µM belonging to O=C(O)COc1ccc(NC(=O)CSCc2ccc(Cl)cc2Cl)cc1 and report it.
Marked response: 89.2

Exam item: I have this compound here, COc1ccc(S(=O)(=O)NCCN2CCOCC2)c(C)c1C , and I need its recorded viability at 28.5 h, 10 µM.
Marked response: 99.4

Exam item: # query: viability at 28.5 h, 10 µM of entry COc1ccccc1-c1ccc(CN2CCC(NC(C)=O)(c3ccc(F)cc3)CC2)cc1
Marked response: 90

Exam item: Recorded viability at 28.5 h, 10 µM of Cc1cc(N2CCCC2)c(F)cc1CN1CCC(O)C(C)C1 (stereo not drawn) , please.
Marked response: 91.6

###

# protocolText: in vitro
# studyConditions: human, hela cells, % viability
measurementLabel: viability at 28.5 h, 10 µM (%)
# output: bare number, implied unit %

Please review the entries below; each comes with its answer.
molecule=CCCNC(=O)c1ccc(C)c(S(=O)(=O)Nc2ccc(C)cc2C)c1 unittag=% measvalue=88.8
molecule="Cc1ccccc1C1(O)CCN(CC(O)c2ccc3c(c2)OCCCO3)CC1 (stereo not shown)" unittag=% measvalue=103
molecule=OCCN1CCN(c2cncc(-c3cccc(OC(F)(F)F)c3)n2)CC1 unittag=% measvalue=108
molecule=CCN1CCN(c2ccc(NC(=O)c3ccc(OCc4ccccc4)cc3)cc2Cl)CC1 unittag=% measvalue=78
molecule="CC(O)CNc1nccnc1-c1cccc(O)c1 (stereo not shown)" unittag=% measvalue=97.6

Exam item: Look up viability at 28.5 h, 10 µM: COc1cccc(CNCC2CCCO2)c1OCc1ccccc1 (stereo not shown) [CBK269798C]
Marked response: 105

Exam item: Fill in: viability at 28.5 h, 10 µM of OCCc1ccc(Nc2cc(-c3ccsc3)ncn2)cc1 is ___
Marked response: 103

Exam item: Need viability at 28.5 h, 10 µM, item CCC(=O)N1CCC(c2cc(C(F)(F)F)n3nc(C)cc3n2)CC1
Marked response: 96.9

Exam item: Which viability at 28.5 h, 10 µM reading was recorded for the molecule Cc1cc2cn([C@H]3C[C@@H](O)[C@@H](CO)O3)c(=O)nc2[nH]1 ?
Marked response: 100

Exam item: Endpoint output: viability at 28.5 h, 10 µM of CCC(C)(C)Nc1cccnc1N(C)C1CCN(C(=O)c2cc3cc(N)ccc3[nH]2)CC1 . Value?
Marked response: 80.3

###

# reported viability at 28.5 h, 10 µM; entries follow
# protocolText: in vitro
# studyConditions: human, hela cells, % viability
Supply the numeric figure in %, leaving out any unit text.

The cases that follow already have their viability at 28.5 h, 10 µM on record.
compound="O=C(Cc1ccc2c(c1)CCC2)N1CCCCC1CN1CCOCC1 (stereo not shown)" measurementlabel="viability at 28.5 h, 10 µM" measvalue=88.8
compound=Cc1cc(CNC(=O)C2(c3ccccc3)CCCC2)no1 measurementlabel="viability at 28.5 h, 10 µM" measvalue=103

Exam item: Could you tell me which viability at 28.5 h, 10 µM is on file for COc1ccc(-c2cc(C(=O)Nc3ccc(CCO)cc3)cnc2-c2cccc(C)c2)cn1 ?
Marked response: 91.8

Exam item: Need viability at 28.5 h, 10 µM of CC(C)n1nccc1C(=O)NCC(c1ccccc1F)N1CCCC1 (stereo not shown) , thanks.
Marked response: 94.1

Exam item: # viability at 28.5 h, 10 µM lookup, item Cn1c(=O)n(CC(=O)OCc2ccccc2)c2cccnc21
Marked response: 91.1

Exam item: Given the entry Cn1ccc(CNCc2c(Br)cc(F)c(F)c2N2CCCCC2)n1 , report its measured viability at 28.5 h, 10 µM.
Marked response: 105

Exam item: Entry C=C(C)Cn1c(SCC(C)C)nnc1-c1ccccc1OC has what viability at 28.5 h, 10 µM?
Marked response: 91.5

Exam item: Would you mind telling me what viability at 28.5 h, 10 µM value was observed for O=S(=O)(Nc1ccccn1)N1CCOCC1 ?
Marked response: 86.9

Exam item: Given the entry Cc1cccc(OC(C)C(=O)Nc2ccc(S(=O)(=O)N3CCOCC3)cc2)c1 (stereo not shown) , report its measured viability at 28.5 h, 10 µM.
Marked response: 106

Exam item: Data request, read-out viability at 28.5 h, 10 µM, for CC(C)NC(=O)c1sc2ccccc2c1C1CN(Cc2ccc3ncccc3c2)CCO1 (stereo not shown)
Marked response: 81.5

Exam item: Fill blank: measured viability at 28.5 h, 10 µM of the compound CN(C)C(=O)N1CCN(C(=O)c2cn(Cc3cccc(S(C)(=O)=O)c3)nn2)CC1 [CBK160969T] is ____.
Marked response: 89.7

Exam item: May I ask what viability at 28.5 h, 10 µM has been recorded for COc1ccc(S(=O)(=O)N(c2ccccc2)C2CCNCC2)cc1OC [CBK165076T] ?
Marked response: 73.9

###

Here, each record is paired with measured viability at 28.5 h, 10 µM data.
# protocolText: in vitro
# studyConditions: human, hela cells, % viability
Entry rule: numbers only, all in %.

compound="c1ccc(-c2cnc(C3CCCCC3)o2)cc1 [CBK008192]" unittag=% measvalue=83.1
compound="CCC(=O)N1CCC[C@@H]1Cn1nc(-c2cccs2)ccc1=O [CBK282304]" unittag=% measvalue=84.8
compound="O=C(c1ccc(-c2nccnc2NCCc2c[nH]c3ccccc23)cc1)N1CCOCC1 [CBK036891]" unittag=% measvalue=95.6

Exam item: I have this compound here, COc1cc(OC)cc(C(=O)N2CCC3(CC2)NC(=O)c2ccc(OC)cc2O3)c1 [CBK166328] , and I need its recorded viability at 28.5 h, 10 µM.
Marked response: 106

Exam item: Request the reported viability at 28.5 h, 10 µM associated with O=S(=O)(c1ccc(Cl)cc1)N1CCN(c2cc(-c3ccco3)ncn2)CC1 [CBK091161]
Marked response: 111

Exam item: Which viability at 28.5 h, 10 µM is listed for COC(=O)c1ccc(-n2cccn2)c(C#Cc2cccnc2)c1 [CBK284525] ?
Marked response: 95.2

Data provenance is paper PMC12040169.
